Values were extracted from patent US20260193366A1.

Reported KD Relative to Dupilumab by item:
- Tested target: T1, human IL-4Rα (human, UniProt P24394 26-232)
- T1 construct: also called Hu IL-4Rα; hIL-4Rα
- T1 sequence: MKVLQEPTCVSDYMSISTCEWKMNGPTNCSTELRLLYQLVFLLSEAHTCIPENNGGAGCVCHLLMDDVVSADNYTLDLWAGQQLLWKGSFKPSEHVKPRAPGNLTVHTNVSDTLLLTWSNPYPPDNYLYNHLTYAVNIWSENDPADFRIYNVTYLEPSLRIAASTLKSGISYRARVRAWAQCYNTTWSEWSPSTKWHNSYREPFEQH
- Assay procedure: SPR, Carterra LSA;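 further: antibodies captured on an anti-human Fc sensor chip, antigen injected at several concentrations, association and dissociation rates fitted with a 1:1 Langmuir model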
Respond with the number and no other words.

Study these solved cases before continuing.
Construct 13 (mAb422) (antibody, IgG4, V domains shown, VH/VL only) VH: EVQLVESGGGLEQPGGSLRLSCAGSGFTFRDFAMTWVRQAPGKGLEWVSSVSGSGGNTYYADSVKGRFTISRDNSKNTLYLQMNSLRAEDTAVYYCAKDRLSVTVRPRYYGLDVWGQGTTVTVSS VL: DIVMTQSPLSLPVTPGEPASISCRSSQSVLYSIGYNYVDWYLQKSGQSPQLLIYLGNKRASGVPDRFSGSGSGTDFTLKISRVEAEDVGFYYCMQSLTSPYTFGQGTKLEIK
0.65
Construct 30 (mAb439) (antibody, IgG4, V domains shown, VH/VL only) VH: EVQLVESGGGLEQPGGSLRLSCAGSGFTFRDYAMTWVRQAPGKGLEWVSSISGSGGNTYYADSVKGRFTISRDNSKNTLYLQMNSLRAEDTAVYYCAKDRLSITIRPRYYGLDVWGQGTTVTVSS VL: DIVMTQSPLSLPVTPGEPASISCRSSQSLLYSNRNNYLDWYLQKSGQSPQLLIYSASIRASGVPDRFSGSGSGTDFTLKISRVEAEDVGFYYCMQAFQAPYTFGQGTKLEIK
0.98

Okay, now this binder:
Consider Construct 12 (mAb421) (antibody, IgG4, V domains shown, VH/VL only) VH: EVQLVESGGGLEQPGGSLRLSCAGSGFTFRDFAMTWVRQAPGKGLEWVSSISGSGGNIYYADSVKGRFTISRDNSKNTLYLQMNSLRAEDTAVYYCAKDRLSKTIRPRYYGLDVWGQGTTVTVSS VL: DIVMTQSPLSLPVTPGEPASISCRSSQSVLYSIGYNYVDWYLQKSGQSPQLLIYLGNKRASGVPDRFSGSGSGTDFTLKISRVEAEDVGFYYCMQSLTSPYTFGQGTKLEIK . Its measured KD Relative to Dupilumab is 1.91
